Attribution: BindingDB's records for patent WO2022098806

I'd be grateful if you could share measured pIC50 for these entries.
Target: Mitogen-activated protein kinase kinase kinase kinase 1 (Homo sapiens, UniProt Q92918)
Sequence (Q92918 whole entry): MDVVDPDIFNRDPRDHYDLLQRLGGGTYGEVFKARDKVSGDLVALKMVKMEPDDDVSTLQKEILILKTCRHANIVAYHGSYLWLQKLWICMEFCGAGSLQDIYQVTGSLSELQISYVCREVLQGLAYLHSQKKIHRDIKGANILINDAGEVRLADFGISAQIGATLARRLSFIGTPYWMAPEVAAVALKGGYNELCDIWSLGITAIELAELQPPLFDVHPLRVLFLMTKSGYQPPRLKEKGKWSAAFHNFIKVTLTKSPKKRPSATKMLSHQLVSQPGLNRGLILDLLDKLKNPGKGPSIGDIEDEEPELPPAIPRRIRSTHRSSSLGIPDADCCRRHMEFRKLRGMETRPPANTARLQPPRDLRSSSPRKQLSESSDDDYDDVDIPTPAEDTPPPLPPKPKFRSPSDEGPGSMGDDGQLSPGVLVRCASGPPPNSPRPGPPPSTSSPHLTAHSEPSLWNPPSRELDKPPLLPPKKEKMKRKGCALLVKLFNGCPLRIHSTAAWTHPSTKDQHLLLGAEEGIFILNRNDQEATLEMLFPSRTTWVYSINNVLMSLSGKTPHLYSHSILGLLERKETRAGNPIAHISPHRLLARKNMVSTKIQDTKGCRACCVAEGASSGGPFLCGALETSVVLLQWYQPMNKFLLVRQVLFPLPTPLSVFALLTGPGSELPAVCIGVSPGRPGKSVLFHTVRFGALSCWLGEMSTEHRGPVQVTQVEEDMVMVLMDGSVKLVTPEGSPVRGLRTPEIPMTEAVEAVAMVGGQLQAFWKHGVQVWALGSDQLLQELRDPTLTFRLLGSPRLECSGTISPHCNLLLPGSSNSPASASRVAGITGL
Assay: HPK1-SLP76 TR-FRET ASSAY
// pIC50 here means minus log10 of the molar concentration (mol/L)

Quick note, pIC50 for COc1cc2c(cc1Nc1ncc3c(N)c(F)c(-c4cnc5c(c4C)NCCO5)cc3n1)[C@@H](C)N(C)CC2 [WO2022098806, Compound 2-35] landed at 9.82

Briefly, pIC50 measured for CNC(=O)C1(c2ccc(Nc3ncc4c(N)c(F)c(-c5cnc6c(c5C)NCCO6)cc4n3)cc2)CCCCC1 [WO2022098806, Compound 2-80] : 10.15

Sample COc1cc2c(cc1Nc1ncc3ccc(-c4cccc(CO)c4)cc3n1)CNCC2 [WO2022098806, Compound 1-60] ; pIC50 observed: 7.70

Form: compound = COc1cc2c(cc1Nc1ncc3ccc(Oc4ccc5c(c4)CNCC5)cc3n1)CN(C)CC2 [WO2022098806, Compound 4-9] ; pIC50 = 8.66

Form field pIC50, entry Cc1c(-c2cc3nc(Nc4ccc([C@@H](C)S(C)(=O)=O)cc4)ncc3c(N)c2F)cnc2c1NCCO2 [WO2022098806, Compound 2-63] : 10.05

Measured pIC50 of COc1cc2c(cc1Nc1ncc3ccc(NCC4CCC(=O)N4)cc3n1)CN(C)CC2 (configuration not stated) [WO2022098806, Compound 3-45] : 6.53

Recorded result, Cc1c(-c2cc3nc(Nc4ccc5c(c4)CN(C)CC5(C)C)ncc3c(N)c2F)cnc2c1NCCO2 [WO2022098806, Compound 2-150] , pIC50: 10.22

pIC50 measured on Cc1c(-c2cc3nc(Nc4ccc([C@H](C)S(C)(=O)=O)cc4)ncc3c(N)c2F)cnc2c1NCCO2 [WO2022098806, Compound 2-62] = 10.22

// pIC50 value for CNC(=O)C1(c2ccc(Nc3ncc4c(N)c(F)c(-c5cnc6c(c5C)NCCO6)cc4n3)cc2)CC1 [WO2022098806, Compound 2-81] : 10.40

Reported pIC50 ( CC[C@H]1COC(=O)N1c1cc(N)c2cnc(Nc3cc4c(cc3OC)CCN(C)C4)nc2c1 [WO2022098806, Compound 3-16] ) = 9.77

The reported value for COc1cc2c(cc1Nc1ncc3ccc(NCC4CNC(=O)O4)cc3n1)CN(C)CC2 (configuration not stated) [WO2022098806, Compound 3-26] in terms of pIC50 is 6.83

Field pIC50 (entry COc1cc2c(cc1Nc1ncc3ccc(N4CC(C)(CO)OC4=O)cc3n1)CN(C)CC2 (configuration not stated) [WO2022098806, Compound 3-7] ) reads 7.35

For reference, reported pIC50 for Cc1c(-c2cc3nc(Nc4ccc5c(c4)CN(C)C(C)(C)C5)ncc3c(N)c2F)cnc2c1NCCO2 [WO2022098806, Compound 2-128] stands at 10.52

The reported pIC50 of the compound Cc1c(-c2cc3nc(Nc4ccc(NS(C)(=O)=O)cc4)ncc3c(N)c2F)cnc2c1NCCO2 [WO2022098806, Compound 2-16] was 10.05

Notebook: COc1cc2c(cc1Nc1ncc3ccc(Nc4cccc(CO)n4)cc3n1)CN(C)CC2 [WO2022098806, Compound 3-29] , pIC50 read as 7.68

For this compound ( CNC(=O)c1ccc(Nc2ncc3c(N)cc(N4C(=O)OC[C@@H]4C)cc3n2)c(OC)c1 [WO2022098806, Compound 3-79] ), measured pIC50 is 9.60

Form: compound = COc1cc2c(cc1Nc1ncc3c(N)cc(N4C(=O)OC[C@@H]4C)cc3n1)CN(C)CC2 [WO2022098806, Compound 3-17] ; pIC50 = 10.10

Briefly, pIC50 measured for Cc1c(-c2cc3nc(Nc4ccc(N5CCOC5=O)cc4)ncc3c(N)c2F)cnc2c1NCCO2 [WO2022098806, Compound 2-67] : 10.30

The compound COc1cc2c(cc1Nc1ncc3c(N)c(F)c(-c4cnc5c(c4C)NCCO5)cc3n1)CN(C)CC2(C)C [WO2022098806, Compound 2-75] showed pIC50 equal to 9.48

Notebook: COc1cc2c(cc1Nc1ncc3ccc(N4CCCC(CN5CCCC5=O)C4)cc3n1)CN(C)CC2 (configuration not stated) [WO2022098806, Compound 3-20] , pIC50 read as 6.11

// pIC50 value for COc1cc(S(C)(=O)=O)ccc1Nc1ncc2c(N)cc(N3C(=O)OC[C@H]3C)cc2n1 [WO2022098806, Compound 3-76] : 10.00

The compound identified as CC[C@@H]1COC(=O)N1c1ccc2cnc(Nc3cc4c(cc3OC)CCN(C)C4)nc2c1 [WO2022098806, Compound 3-13] registered its pIC50 at 8.98

# compound CC(=O)N1CCc2ccc(Nc3ncc4c(N)c(F)c(-c5cnc6c(c5C)NCCO6)cc4n3)cc2C1 [WO2022098806, Compound 2-12] ; its pIC50 = 6.06

// field: pIC50; key: Cc1c(-c2cc3nc(Nc4ccc5c(c4)C4CC5CN4C)ncc3c(N)c2F)cnc2c1NCCO2 (configuration not stated) [WO2022098806, Compound 2-79] ; value = 10.52

# pIC50 of COc1cc2c(cc1Nc1ncc3ccc(-c4cnn(CC(C)O)c4)cc3n1)CN(C)CC2 (configuration not stated) [WO2022098806, Compound 1-102] = 7.66

Consider COc1cc2c(cc1Nc1ncc3c(N)c(F)c(-c4cnc5c(c4C)NCCO5)cc3n1)C(C)N(C)C(C)C2 (configuration not stated) [WO2022098806, Compound 2-48] . Its measured pIC50 is 9.15

Reported pIC50 for CNC(=O)[C@@H]1CCc2cc(Nc3ncc4cc(F)c(-c5cnc6c(c5C)NCCO6)cc4n3)ccc21 [WO2022098806, Compound 1-118] was 10.40
